system name: Replicative DNA helicase DnaB (Mycobacterium tuberculosis)
Sequence (P9WMR3 whole entry): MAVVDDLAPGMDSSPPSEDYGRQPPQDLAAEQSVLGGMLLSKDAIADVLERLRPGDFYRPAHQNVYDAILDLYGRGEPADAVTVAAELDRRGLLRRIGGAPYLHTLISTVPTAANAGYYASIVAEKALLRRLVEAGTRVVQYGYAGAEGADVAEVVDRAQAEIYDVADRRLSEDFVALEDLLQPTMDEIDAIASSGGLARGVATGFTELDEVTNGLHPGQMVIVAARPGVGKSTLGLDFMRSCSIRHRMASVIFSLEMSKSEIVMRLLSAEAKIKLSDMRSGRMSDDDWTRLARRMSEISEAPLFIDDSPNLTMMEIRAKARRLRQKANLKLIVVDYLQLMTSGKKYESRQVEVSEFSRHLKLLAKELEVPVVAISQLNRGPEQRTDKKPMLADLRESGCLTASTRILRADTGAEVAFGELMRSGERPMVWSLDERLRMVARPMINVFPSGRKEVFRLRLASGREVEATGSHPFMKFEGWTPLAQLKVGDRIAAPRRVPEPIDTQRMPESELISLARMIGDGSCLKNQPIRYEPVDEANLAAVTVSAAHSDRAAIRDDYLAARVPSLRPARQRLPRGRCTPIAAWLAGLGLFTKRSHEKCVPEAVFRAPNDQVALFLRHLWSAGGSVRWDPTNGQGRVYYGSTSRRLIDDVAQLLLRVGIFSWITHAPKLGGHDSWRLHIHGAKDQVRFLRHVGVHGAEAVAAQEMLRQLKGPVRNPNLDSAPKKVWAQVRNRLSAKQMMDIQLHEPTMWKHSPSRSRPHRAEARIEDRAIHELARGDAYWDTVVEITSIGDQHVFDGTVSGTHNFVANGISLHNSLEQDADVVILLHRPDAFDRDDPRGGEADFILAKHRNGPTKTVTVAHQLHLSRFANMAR
assay overview: DnaB intein splicing inhibitors, dose response, biochemical, cell-free fluorescence (AID 449749)
Assay type: functional
Calls of active or inactive are those of the source. Rule as the data show it: actives have a measured AC50 and inactives only a lower limit.
Outcomes: y for active, n for inactive

INSERT INTO measurements (molecule, system_name, assigned_label) VALUES
  ('Cc1nc2c(-c3ccc(F)cc3)c(C)nn2c(O)c1Cl', 'Replicative DNA helicase DnaB (Mycobacterium tuberculosis)', 'y'),
  ('O=C(CCl)Nc1cc(-c2ccccc2)nn1-c1ccccc1', 'Replicative DNA helicase DnaB (Mycobacterium tuberculosis)', 'n'),
  ('O=c1cc(-c2c(F)c(F)c(F)c(F)c2F)oc2c(F)c(F)c(F)c(F)c12', 'Replicative DNA helicase DnaB (Mycobacterium tuberculosis)', 'y'),
  ('COc1ccc(S(=O)(=O)c2cnc3ccccc3n2)cc1', 'Replicative DNA helicase DnaB (Mycobacterium tuberculosis)', 'y'),
  ('COc1cc2c(cc1OC)C(c1cc(Br)ccc1F)N(C(=O)CCl)CC2 (configuration not stated)', 'Replicative DNA helicase DnaB (Mycobacterium tuberculosis)', 'y'),
  ('Cc1ccc(N(CCC#N)C(=O)CCl)cc1C', 'Replicative DNA helicase DnaB (Mycobacterium tuberculosis)', 'y'),
  ('COC1=C(Nc2ccc(O)cc2)C(=O)c2ccccc2C1=O', 'Replicative DNA helicase DnaB (Mycobacterium tuberculosis)', 'n'),
  ('CC1=NN(c2ccc(N)cc2)C(=O)C1', 'Replicative DNA helicase DnaB (Mycobacterium tuberculosis)', 'y'),
  ('O=C(CCl)c1cc2c3c(c1)CC(=O)N3CCC2', 'Replicative DNA helicase DnaB (Mycobacterium tuberculosis)', 'y'),
  ('Cc1ccccc1CS(=O)(=O)c1ncc(Cl)c(C(=O)Nc2ccc(F)cc2)n1', 'Replicative DNA helicase DnaB (Mycobacterium tuberculosis)', 'y'),
  ('Cc1nn(Cc2ccccc2)c2c1C(c1cccnc1)C(C#N)=C(N)O2 (configuration not stated)', 'Replicative DNA helicase DnaB (Mycobacterium tuberculosis)', 'y'),
  ('CCOc1cc(/C=C2/C(=N)N3C(=NC2=O)SN=C3S(=O)(=O)C(C)C)ccc1OC(=O)c1ccco1', 'Replicative DNA helicase DnaB (Mycobacterium tuberculosis)', 'n'),
  ('COc1ccc(N(Cc2cc(O)nc3ccccc23)C(=O)CCl)cc1', 'Replicative DNA helicase DnaB (Mycobacterium tuberculosis)', 'y'),
  ('Cc1ccc2nc(-c3cccs3)oc(=O)c2c1', 'Replicative DNA helicase DnaB (Mycobacterium tuberculosis)', 'y'),
  ('Cc1cccc(OCCN2CSC(=S)N(C)C2)c1', 'Replicative DNA helicase DnaB (Mycobacterium tuberculosis)', 'y'),
  ('COc1ccc(-c2cc(=O)[nH][nH]2)cc1', 'Replicative DNA helicase DnaB (Mycobacterium tuberculosis)', 'y'),
  ('O=C(CSc1c2c(nc3cc(Cl)ccc13)CCCC2)NCc1ccco1', 'Replicative DNA helicase DnaB (Mycobacterium tuberculosis)', 'y');
